Measured On: T1, colicin E7 DNase (ColE7) (E. coli, UniProt Q47112 444-576)
T1 sequence: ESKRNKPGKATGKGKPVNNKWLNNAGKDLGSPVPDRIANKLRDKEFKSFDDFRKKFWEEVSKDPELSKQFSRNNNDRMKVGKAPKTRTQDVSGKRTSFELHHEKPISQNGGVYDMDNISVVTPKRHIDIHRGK
Procedure Summary: not stated (running text of Example 4)
Attribute Measured: Kd (pM)
Provide only the numeric value, understood in pM.

The binder listed as immunity protein 7 (Im7), wild type (other, also called wild-type Im7) MELKNSISDYTEAEFVQLLKEIEKENVAATDDVLDVLLEHFVKITEHPDGTDLIYYPSDNRDDSPEGIVKEIKEWRAANGKPGFKQG shows Kd equal to 0.00079
